Where do these numbers come from? They come from patent US6380249B1.

MEASUREMENT_LABEL: melting point

# COMPOUND, melting point
measured = [
    ("COc1cc(Cc2ccccc2)cc(C(=O)CC(=O)C(=O)O)c1OCCSC", "99 to 100 °C"),
    ("O=C(O)C(=O)CC(=O)c1cc(Cc2ccccc2)cc2c1OCC(O)CO2 (racemic)", "182 to 183 °C"),
]

Required: melting point, one value per compound below.
1. O=C(O)C(=O)CC(=O)c1cc(Cc2ccccc2)cc2c1OCCO2
2. O=C(O)C(=O)CC(=O)c1cccc(OCc2ccc(F)cc2)c1
3. O=C(O)C(=O)CC(=O)c1ccc2ccn(Cc3ccc(F)cc3)c2c1
4. O=C(O)C(=O)CC(=O)c1cccc2c1ccn2Cc1ccc(F)cc1

154 to 155 °C
157 to 158 °C
173 to 174 °C
156 to 157 °C

Required: melting point, one value per compound below.
1. O=C(O)C(=O)CC(=O)c1cccc(OCc2ccc(F)c(F)c2)c1
2. COc1cc(OCc2ccccc2)cc(C(=O)CC(=O)C(=O)O)c1
3. COCCOc1c(OC)cc(Cc2ccccc2)cc1C(=O)CC(=O)C(=O)O

1. 181 to 182 °C
2. 101 to 102 °C
3. 83 to 85 °C

Required: melting point, one value per compound below.
1. COc1cc(CC2CC2)cc(C(=O)CC(=O)C(=O)O)c1OC
2. O=C(O)C(=O)CC(=O)c1ccccc1OCc1ccccc1
3. C=CCCCc1cc(OC)c(OC)c(C(=O)CC(=O)C(=O)O)c1

101 to 103 °C
136 to 138 °C
75 to 76 °C
